molecular target: 5-HT1A receptor (Homo sapiens, UniProt P08908); construct: expressed in transfected cells; assay: G-protein-dependent signal transduction (functional agonism); format: cell-based; details: read-out: EC50 (nM) (Agonist)
Sequence (P08908 whole entry): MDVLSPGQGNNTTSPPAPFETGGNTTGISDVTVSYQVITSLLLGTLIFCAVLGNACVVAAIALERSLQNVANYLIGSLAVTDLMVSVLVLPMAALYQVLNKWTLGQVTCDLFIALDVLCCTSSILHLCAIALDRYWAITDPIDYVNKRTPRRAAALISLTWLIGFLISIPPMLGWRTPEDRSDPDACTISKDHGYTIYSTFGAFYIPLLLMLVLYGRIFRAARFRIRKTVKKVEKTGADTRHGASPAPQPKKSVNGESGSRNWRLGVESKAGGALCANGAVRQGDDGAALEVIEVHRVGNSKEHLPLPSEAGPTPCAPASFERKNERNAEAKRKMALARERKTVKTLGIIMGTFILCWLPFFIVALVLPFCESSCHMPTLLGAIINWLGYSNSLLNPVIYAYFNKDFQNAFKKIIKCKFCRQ
MEASURED ENDPOINT: EC50 (nM)
The response must be a number in nM with no trailing unit.

-- ask Endpoint output: EC50 of CN(C)CCC=C1c2ccccc2C=Cc2ccccc21 . Value?
-- reply 3200

====

biological target: Sigma 1 (Homo sapiens, UniProt Q99720)
Sequence (Q99720 whole entry): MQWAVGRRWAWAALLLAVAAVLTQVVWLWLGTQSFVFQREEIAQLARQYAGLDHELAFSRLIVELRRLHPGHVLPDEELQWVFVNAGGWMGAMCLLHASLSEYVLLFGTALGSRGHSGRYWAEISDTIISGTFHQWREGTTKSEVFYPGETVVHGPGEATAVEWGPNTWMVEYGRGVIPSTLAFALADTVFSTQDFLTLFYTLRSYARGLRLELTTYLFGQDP
MEASURED ENDPOINT: Ki (nM)
Return type: number; implicit unit nM.

-- ask Param readout = Ki; param system = Sigma 1 (Homo sapiens, UniProt Q99720); param query = CNCCC=C1c2ccccc2C=Cc2ccccc21 ; response: value
-- reply 120

====

assay: in vivo; settings: female, beagle, dog, po, 0.14 mg/kg, Cyclobenzaprine plasma concentration
Where a name gives a salt, the structure may show the parent alone.
MEASURED ENDPOINT: concentration at 10 h (ng/mL)
Record the value in ng/mL, omitting the unit from your answer.

-- ask Can you look up the measured concentration at 10 h of CN(C)CCC=C1c2ccccc2C=Cc2ccccc21 [cyclobenzaprine HCl] for me?
-- reply 0.112

====

assay: clinical; details: human, in vivo, 2.4 mg, AUC0-2 h
MEASURED ENDPOINT: AUC(0-t)

-- ask Value lookup for AUC(0-t); key = CN(C)CCC=C1c2ccccc2C=Cc2ccccc21 [cyclobenzaprine]
-- reply ~2.1 ng·h/mL

====

assay: in vivo; conditions: female, beagle, dog, 1.79 mg, AUC0-24 h
MEASURED ENDPOINT: AUC(0-t) (ng·h/mL)
Report the figure in ng·h/mL without appending any unit label.

-- ask Fill in the blank: the reported AUC(0-t) of CN(C)CCC=C1c2ccccc2C=Cc2ccccc21 is ____.
-- reply 127

====

Biological target: 5-HT2C receptor (Homo sapiens, UniProt P28335)
Construct: expressed in transfected cells
Sequence (P28335 33-458): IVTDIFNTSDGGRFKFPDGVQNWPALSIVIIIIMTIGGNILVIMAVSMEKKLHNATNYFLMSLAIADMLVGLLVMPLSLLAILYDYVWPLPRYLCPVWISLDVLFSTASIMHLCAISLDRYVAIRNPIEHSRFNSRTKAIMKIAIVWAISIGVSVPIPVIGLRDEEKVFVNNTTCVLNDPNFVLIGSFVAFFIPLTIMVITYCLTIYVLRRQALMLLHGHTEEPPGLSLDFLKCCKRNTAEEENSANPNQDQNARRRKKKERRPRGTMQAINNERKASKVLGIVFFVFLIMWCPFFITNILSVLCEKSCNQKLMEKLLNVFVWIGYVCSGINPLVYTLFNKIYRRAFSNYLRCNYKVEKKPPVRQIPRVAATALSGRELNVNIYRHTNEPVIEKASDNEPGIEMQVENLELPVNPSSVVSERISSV
Assay: G-protein-dependent signal transduction, intracellular Ca2+ mobilization
Format: cell-based
Conditions: 5-HT2c; read-out: IC50, functional antagonist
MEASURED ENDPOINT: IC50 (nM)
Number only, in nM; omit the unit.

CN(C)CCC=C1c2ccccc2C=Cc2ccccc21    440

# context switch: different compound, same IC50
-- ask Any idea what its IC50 is? The compound is CNCCC=C1c2ccccc2C=Cc2ccccc21
-- reply 1220

====

target: D3 (Homo sapiens); experiment: Equilibrium receptor binding, recombinant human receptor
Sequence (P35462 whole entry): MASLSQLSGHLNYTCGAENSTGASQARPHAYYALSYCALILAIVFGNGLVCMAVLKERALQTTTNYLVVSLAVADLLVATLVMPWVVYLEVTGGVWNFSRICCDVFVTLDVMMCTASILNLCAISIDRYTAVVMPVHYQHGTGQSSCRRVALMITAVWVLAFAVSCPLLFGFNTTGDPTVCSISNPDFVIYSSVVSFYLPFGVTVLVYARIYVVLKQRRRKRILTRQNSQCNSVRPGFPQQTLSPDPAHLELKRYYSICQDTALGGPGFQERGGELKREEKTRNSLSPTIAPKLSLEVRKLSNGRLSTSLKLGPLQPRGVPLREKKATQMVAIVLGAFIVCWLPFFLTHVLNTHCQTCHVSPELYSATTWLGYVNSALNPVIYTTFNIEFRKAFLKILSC
In this section, each of the compounds is paired with its reported Ki.
Respond with the figure and its unit, in that order.

CN(C)CCC=C1c2ccccc2C=Cc2ccccc21 [cyclobenzaprine]    34 nM

Now consider a different compound.
-- ask What value of Ki has been reported for the following compound? CNCCC=C1c2ccccc2C=Cc2ccccc21 [norcyclobenzaprine]
-- reply 98 nM

====

test: clinical; settings: human, in vivo, 2.4 mg, AUC0-30min
MEASURED ENDPOINT: AUC(0-t)

-- ask Consider the compound CN(C)CCC=C1c2ccccc2C=Cc2ccccc21 [cyclobenzaprine] and give its measured AUC(0-t).
-- reply ~0.13 ng·h/mL

====

Quick list: pEC50 per entry.
target: 5-HT1A receptor (Homo sapiens, UniProt P08908); construct: expressed in transfected cells; experiment: G-protein-dependent signal transduction (functional agonism); assay type: cell-based; conditions: read-out: EC50, functional agonist
Worth noting: pEC50 values are minus log10 of concentrations stated in mol/L.

CNCCC=C1c2ccccc2C=Cc2ccccc21 [norcyclobenzaprine]    5.49

# next compound below
-- ask Recorded pEC50 for CN(C)CCC=C1c2ccccc2C=Cc2ccccc21 [cyclobenzaprine] , please?
-- reply 5.28

====

experiment: in vivo; conditions: female, beagle, dog, iv, 0.14 mg/kg, plasma level
MEASURED ENDPOINT: concentration at 0.5 h (ng/mL)
// note: answer is a bare numeric in ng/mL

-- ask Tell me the measured concentration at 0.5 h of CN(C)CCC=C1c2ccccc2C=Cc2ccccc21 [cyclobenzaprine] , please.
-- reply 52.3

====

// values below are pKi; system is norepinephrine (NE) transporter (Homo sapiens)
Sequence (P23975 whole entry): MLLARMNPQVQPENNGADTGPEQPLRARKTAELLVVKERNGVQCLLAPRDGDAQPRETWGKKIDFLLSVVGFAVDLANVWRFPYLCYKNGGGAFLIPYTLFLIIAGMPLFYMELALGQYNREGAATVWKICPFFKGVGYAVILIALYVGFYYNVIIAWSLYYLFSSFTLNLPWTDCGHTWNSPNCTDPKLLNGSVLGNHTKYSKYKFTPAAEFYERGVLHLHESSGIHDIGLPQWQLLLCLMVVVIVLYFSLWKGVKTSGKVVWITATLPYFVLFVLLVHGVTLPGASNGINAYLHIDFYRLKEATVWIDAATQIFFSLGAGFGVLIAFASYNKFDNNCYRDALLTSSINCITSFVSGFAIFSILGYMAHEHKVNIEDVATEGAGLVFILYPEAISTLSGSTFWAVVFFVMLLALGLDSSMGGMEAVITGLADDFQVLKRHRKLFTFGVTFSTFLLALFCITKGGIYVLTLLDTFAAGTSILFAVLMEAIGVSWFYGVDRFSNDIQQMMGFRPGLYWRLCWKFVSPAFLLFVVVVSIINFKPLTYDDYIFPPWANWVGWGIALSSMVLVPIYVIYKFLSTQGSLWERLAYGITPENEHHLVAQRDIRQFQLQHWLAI
Would you please state pKi, meaning minus log10 of the concentration in mol/L, as a bare number?

CN(C)CCC=C1c2ccccc2C=Cc2ccccc21    7.46

-- ask Checklist item: pKi tested on norepinephrine (NE) transporter (Homo sapiens), entry CNCCC=C1c2ccccc2C=Cc2ccccc21 , value?
-- reply 8.59

====

test: in vivo; settings: female, beagle, dog, bioavailability, conclusion
MEASURED ENDPOINT: bioavailability

-- ask May I ask what bioavailability has been recorded for CN(C)CCC=C1c2ccccc2C=Cc2ccccc21 ?
-- reply ~100%

====

Below are compounds with their Ki as measured on dopamine (D) transporter (Homo sapiens).
Sequence (Q01959 whole entry): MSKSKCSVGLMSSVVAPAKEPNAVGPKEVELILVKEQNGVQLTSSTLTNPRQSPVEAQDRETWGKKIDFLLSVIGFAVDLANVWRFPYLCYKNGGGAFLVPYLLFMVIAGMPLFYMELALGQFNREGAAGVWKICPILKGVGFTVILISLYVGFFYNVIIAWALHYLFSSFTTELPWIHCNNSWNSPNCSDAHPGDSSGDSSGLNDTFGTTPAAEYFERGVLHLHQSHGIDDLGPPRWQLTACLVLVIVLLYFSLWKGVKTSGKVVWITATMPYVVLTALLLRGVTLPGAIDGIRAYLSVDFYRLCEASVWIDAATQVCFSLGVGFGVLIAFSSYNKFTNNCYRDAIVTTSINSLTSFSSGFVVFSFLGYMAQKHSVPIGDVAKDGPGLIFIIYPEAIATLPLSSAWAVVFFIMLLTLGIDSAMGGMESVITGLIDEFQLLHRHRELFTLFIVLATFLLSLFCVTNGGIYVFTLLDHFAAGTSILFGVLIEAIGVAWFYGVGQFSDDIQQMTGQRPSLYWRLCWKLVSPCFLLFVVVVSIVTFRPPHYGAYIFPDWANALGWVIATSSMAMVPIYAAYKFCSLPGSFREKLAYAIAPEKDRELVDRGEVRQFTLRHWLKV

CNCCC=C1c2ccccc2C=Cc2ccccc21    > 10 µM

Attention now shifts to the item below.
-- ask Which measured Ki belongs to CN(C)CCC=C1c2ccccc2C=Cc2ccccc21 , tested on dopamine (D) transporter (Homo sapiens)?
-- reply > 10 µM

====

target: UniProt P18825; test: Equilibrium receptor binding, recombinant human receptor
Sequence (P18825 whole entry): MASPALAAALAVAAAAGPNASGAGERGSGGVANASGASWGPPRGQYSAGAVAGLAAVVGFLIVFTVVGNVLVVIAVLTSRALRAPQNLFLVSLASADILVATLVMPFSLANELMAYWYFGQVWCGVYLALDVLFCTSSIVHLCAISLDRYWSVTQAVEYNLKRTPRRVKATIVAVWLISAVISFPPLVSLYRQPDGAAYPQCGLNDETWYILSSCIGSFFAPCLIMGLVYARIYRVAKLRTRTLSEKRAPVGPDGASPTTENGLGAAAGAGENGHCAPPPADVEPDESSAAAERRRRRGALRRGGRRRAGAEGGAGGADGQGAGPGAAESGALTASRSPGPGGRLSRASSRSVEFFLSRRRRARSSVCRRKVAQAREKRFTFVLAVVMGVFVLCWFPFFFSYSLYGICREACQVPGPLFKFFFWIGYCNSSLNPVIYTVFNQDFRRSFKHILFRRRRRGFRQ
MEASURED ENDPOINT: Ki (nM)
Give the value in nM but do not write nM after it.

CNCCC=C1c2ccccc2C=Cc2ccccc21    48

Proceeding to the next compound to report its Ki.
-- ask Report Ki for CN(C)CCC=C1c2ccccc2CCc2ccccc21 please.
-- reply 14

====

assay: in vivo; conditions: female, beagle, dog, iv, 0.14 mg/kg, Cyclobenzaprine plasma concentration
Structures can show the parent of a compound that is named as a salt.
MEASURED ENDPOINT: concentration at 3 h (ng/mL)
Unit ng/mL implied. Number only.

-- ask # query: concentration at 3 h of entry CN(C)CCC=C1c2ccccc2C=Cc2ccccc21 [cyclobenzaprine HCl]
-- reply 4.43

====

Readings of pKi for the listed molecules
target: adrenergic α1A receptor (Alpha1A) (Homo sapiens, UniProt P35348); construct: expressed in transfected cells; assay: Equilibrium receptor binding, recombinant human receptor; settings: Alpha1A
Sequence (P35348 whole entry): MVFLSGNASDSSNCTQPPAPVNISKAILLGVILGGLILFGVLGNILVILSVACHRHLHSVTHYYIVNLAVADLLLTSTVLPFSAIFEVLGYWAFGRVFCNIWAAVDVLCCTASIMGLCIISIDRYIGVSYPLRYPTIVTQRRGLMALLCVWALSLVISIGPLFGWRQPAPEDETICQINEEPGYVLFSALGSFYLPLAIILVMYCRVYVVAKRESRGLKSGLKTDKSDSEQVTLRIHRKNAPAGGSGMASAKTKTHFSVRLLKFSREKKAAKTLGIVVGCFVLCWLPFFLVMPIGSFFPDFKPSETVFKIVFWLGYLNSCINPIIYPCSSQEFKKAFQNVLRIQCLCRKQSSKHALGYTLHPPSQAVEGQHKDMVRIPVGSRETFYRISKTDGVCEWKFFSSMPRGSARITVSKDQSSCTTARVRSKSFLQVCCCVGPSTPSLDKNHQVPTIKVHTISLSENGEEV
Give only the number. pKi is defined as minus log10 of concentration in molar units.

CN(C)CCC=C1c2ccccc2C=Cc2ccccc21    8.25

Turning to the following molecule.
-- ask API: value(readout=pKi, system=adrenergic α1A receptor (Alpha1A) (Homo sapiens, UniProt P35348)) for record CNCCC=C1c2ccccc2C=Cc2ccccc21
-- reply 7.47

The reported numbers originate from patent US20260232578A1.
